The values you see were collected from patent US20140323519A1.

MEASURED ATTRIBUTE: IC50

Test item Cc1ccc(NC(=O)c2cccc(C(C)(C)C#N)c2)cc1N1CC(c2ccccc2)CC1=O (stereo not shown) ; B-Raf kinase (Homo sapiens); reported IC50 was 50 to 100 nM
